molecular target: T1, human SIRP-α v2 (human); assay: SPR, antibody on GLC chip
T1 construct: also called Human v2; Human V2
T1 sequence (chain, as listed by the source limits assumed): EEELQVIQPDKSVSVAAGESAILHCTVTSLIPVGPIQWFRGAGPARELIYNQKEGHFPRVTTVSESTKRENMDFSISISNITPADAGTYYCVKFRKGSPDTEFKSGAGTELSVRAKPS
# key: entry, value: pKd
The scale used: pKd is minus the common logarithm of the concentration in molar units.

Record excerpt, results attached:
1) antibody 136 variant, light chain Mut_S22T / heavy chain Mut (antibody, V domains shown) VH: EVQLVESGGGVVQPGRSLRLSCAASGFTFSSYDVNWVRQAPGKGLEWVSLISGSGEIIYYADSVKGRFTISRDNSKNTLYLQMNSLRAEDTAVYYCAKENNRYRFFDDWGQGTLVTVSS VL: EIVLTQSPGTLSLSPGERATLTCRASQSVYTYLAWYQQKPGQAPRLLIYGASSRATGIPDRFSGSGSGTEFTLTISSLQSEDFAVYYCQQYYDRPPLTFGGGTKVEIK; 8.08
2) antibody 119 variant, light chain Mut / heavy chain wt (antibody, V domains shown) VH: DVQLLESGGGVVQPGGSLRLSCAASGFSFSNFAMTWVRQAPGEGLEWVSTIGSGDTYYADSVKGRFTISRDNSKNTLYLQMNSLRAEDTAVYYCAKDSTVSWSGDFFDYWGLGTLVTVSS VL: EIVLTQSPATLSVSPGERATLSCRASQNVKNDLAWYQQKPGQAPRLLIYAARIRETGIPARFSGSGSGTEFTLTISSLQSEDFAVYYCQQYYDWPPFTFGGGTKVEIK; 10.06
3) antibody 136 variant, light chain Mut_S12T / heavy chain Mut (antibody, V domains shown) VH: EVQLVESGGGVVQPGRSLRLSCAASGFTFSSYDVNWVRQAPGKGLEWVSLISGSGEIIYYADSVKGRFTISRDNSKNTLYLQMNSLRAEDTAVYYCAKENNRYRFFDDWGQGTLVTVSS VL: EIVLTQSPGTLTLSPGERATLSCRASQSVYTYLAWYQQKPGQAPRLLIYGASSRATGIPDRFSGSGSGTEFTLTISSLQSEDFAVYYCQQYYDRPPLTFGGGTKVEIK; 7.98

Now examine the next entry.
Using the record for antibody 136 variant, light chain Mut_I2T / heavy chain Mut_V34M (antibody, V domains shown) VH: EVQLVESGGGVVQPGRSLRLSCAASGFTFSSYDMNWVRQAPGKGLEWVSLISGSGEIIYYADSVKGRFTISRDNSKNTLYLQMNSLRAEDTAVYYCAKENNRYRFFDDWGQGTLVTVSS VL: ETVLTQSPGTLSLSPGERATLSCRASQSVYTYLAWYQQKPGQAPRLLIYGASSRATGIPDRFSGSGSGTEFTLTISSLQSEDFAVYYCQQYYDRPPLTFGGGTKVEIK , report its pKd. 8.76
